Reference for the values: PubChem BioAssay AID1159580

- assay_text: chemical genetic growth profiling, strain panel (AID 1159580);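 further: tested at 20 µM; growth read once vehicle control cultures reached saturation at 30 °C; 1 = growth at the plate median or of vehicle wells; lower values mean less growth of the strain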
- reported_conditions: S. cerevisiae deletion strains, growth OD, locus YPL241C, strain CIN2, stronger effect = lower value
About 2,000 (36%) of roughly 5,500 compounds were called active. Another 18% or so got no clear call; they are omitted. The list shows a part of the results.
experimental_endpoint: normalized growth
Numbers only.

Would you please look over these solved cases?
>>> experimental_result("CCCn1c(=O)c(C#N)cn(-c2ccc(Cl)cc2)c1=O")
0.982
>>> experimental_result("Oc1ccc(Cl)cc1Cc1cc(Cl)ccc1O")
0.0663
>>> experimental_result("COc1ccccc1N=C(N)SCc1ccccc1")
0.994
>>> experimental_result("Nc1ccc(N=Nc2ccccc2)c(N)n1")
0.998
>>> experimental_result("c1ccc(-c2cc3c(nn2)CCc2nonc2-3)cc1")
0.988
>>> experimental_result("CC1(C)OC(=O)C=CC2(C)C1CC(O)C1(C)C2CCC2(C)C(c3ccoc3)OC(=O)C3OC321 (configuration not stated)")
1.01
>>> experimental_result("Cc1onc(-c2c(Cl)cccc2Cl)c1C(=O)Oc1ccc(Cl)c(Cl)c1")
0.973
>>> experimental_result("C#CCCCCCCCCCCCC(=O)CC(O)COC(C)=O (configuration not stated)")
0.96

Would you mind listing normalized growth for each of the following molecules?
1. CCCCN1CCCCC1C(=O)Nc1c(C)cccc1C (configuration not stated)
2. Nc1cc2c(cc1Cl)C(=O)NC2=O
3. O=C(O)Cc1c[nH]c2ccc(O)cc12

Response given:
[1.01, 0.985, 0.992]

Batch request: normalized growth for each of the following molecules.
1. COC(=O)C1=CCCN(C)C1
2. CC1(C)C2CC(=O)[C@]3(C)C(CC[C@@]4(C)[C@H](c5ccoc5)OC(=O)[C@H]5O[C@]543)[C@@]2(C)C=C[C@@H]1O (some centres not stated)
3. Nc1nc2ncc(=O)[nH]c2c(=O)[nH]1
4. C#CCCCCCCCCCCCC(O)CC(O)CO (configuration not stated)
5. Cc1onc(-c2c(Cl)cccc2Cl)c1C(=O)OCC(F)(F)F
6. C=C1C(C)C2C(Cc3ccccc3)NC(=O)C23OC(=O)/C=C/C(=O)CCCC(C)C/C=C/C3C1O (configuration not stated)
7. COC(=O)C(O)c1ccccc1 (configuration not stated)

Response given:
0.994
1.01
0.994
1
1.04
1
0.986

Here are 2 molecules. What values of normalized growth were reported for them?
1. C#CCCCCCCCCCCCC(O)CC(O)COC(C)=O (configuration not stated)
2. C=C1C(C)C2C(Cc3ccccc3)NC(=O)C23OC(=O)/C=C/C(O)CCCC(C)C/C=C/C3C1O (configuration not stated)

Response given:
[0.983, 1.01]

Value sought for every listed molecule: normalized growth.
1. CCOC(=O)Cn1c(=O)c(C#N)cn(C(C)C)c1=O
2. CC1OC1P(=O)(O)O (configuration not stated)
3. OC(CN1CCN(c2nc3ccc(Cl)cc3s2)CC1)CN1CCCN(c2ncc(C(F)(F)F)cc2Cl)CC1 (configuration not stated)
4. Oc1ccc(Cl)cc1
5. C=C1C(=O)O[C@@H]2C3O[C@]3(C)CC/C=C(\C)CC[C@@H]12 (some centres not stated)
6. CC1(C)C2(Cl)C(Cl)C(Cl)C(Cl)(C(Cl)Cl)C1(Cl)C2Cl (configuration not stated)
7. CC(=O)CC(=O)Nc1ccccc1Cl

Response given:
1. 1.02
2. 0.996
3. 0.0618
4. 0.997
5. 0.922
6. 0.993
7. 0.978

Below is a list of molecules. For each, state its recorded normalized growth.
1. Cc1cccc2c1N(C(=S)Nc1ccccc1Cl)CCC2
2. O=C1CC2OCC=C3CN4CC[C@]56c7ccccc7N1C5[C@H]2[C@H]3CC46 (some centres not stated)
3. CC(=O)c1cnn(-c2ccccc2)c1C
4. COC(=O)c1sccc1NC(=O)C1CC1
5. O=[N+]([O-])c1ccc2c(c1)NC(c1ccc([N+](=O)[O-])s1)O2 (configuration not stated)
6. O=C(O)c1ccccc1-c1c2cc(Br)c(=O)cc-2oc2[c]([Hg])c(O)c(Br)cc12

Response given:
1: 0.859; 2: 0.978; 3: 0.984; 4: 0.97; 5: 0.0629; 6: 0.987

Parameter requested: normalized growth. Apply to each item below.
1. COc1cc2occ(-c3ccccc3)c(=O)c2c(OC)c1C
2. CC(C)(C)C1(O)CCN2CC3c4ccccc4CCc4cccc(c43)C2C1 (configuration not stated)

Response given:
0.959
0.999

Kindly give each listed record's normalized growth.
1. COc1cc(-c2coc3cc(OCc4ccccc4)c(OC)c(O)c3c2=O)cc(O)c1OC
2. CC(C)(Oc1ccc(C2CC2(Cl)Cl)cc1)C(=O)O (configuration not stated)

Response given:
0.974
0.984

Could I get normalized growth for every one of these entries?
1. CCOC(=O)[C@H](CCc1ccccc1)N[C@@H](C)C(=O)N1[C@H](C(=O)O)C[C@@H]2CCC[C@@H]21
2. OCc1ccccc1O

Response given:
[0.999, 1.01]

====

Provide the recorded normalized growth for the entries that follow.
- assay_text: chemical genetic growth profiling, strain panel (AID 1159580);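 further: tested at 20 µM; growth read once vehicle control cultures reached saturation at 30 °C; 1 = growth at the plate median or of vehicle wells; lower values mean less growth of the strain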
- reported_conditions: S. cerevisiae deletion strains, growth OD, locus YLL026W, stronger effect = lower value
The whole screen tested about 5,500 compounds, of which about 2,000 (36%) were called active. Another 18% or so got no clear call; they are omitted. The list shows a part of the results.
One number for each entry.

Below, 5 compounds whose answers are already recorded.
>>> experimental_result("COc1cc2occ(-c3ccccc3)c(=O)c2c(OC)c1C")
0.971
>>> experimental_result("O=C(O)c1ccccc1-c1c2cc(Br)c(=O)cc-2oc2[c]([Hg])c(O)c(Br)cc12")
1.04
>>> experimental_result("Cc1ccc(C)c(OCCCC(C)(C)C(=O)O)c1")
0.976
>>> experimental_result("O=C(Cn1ccnc1[N+](=O)[O-])NCCO")
1.01
>>> experimental_result("COc1cc(OC)c2c(=O)c(-c3ccccc3)coc2c1")
0.99

Lab note: each compound below needs its normalized growth filled in.
1. OCCOCCN1CCN(C2=Nc3ccccc3Sc3ccccc32)CC1
2. CCOC(=O)[C@H](CCc1ccccc1)N[C@@H](C)C(=O)N1[C@H](C(=O)O)C[C@@H]2CCC[C@@H]21
3. CC[N+](CC)(CC)CCOc1cccc(OCC[N+](CC)(CC)CC)c1OCC[N+](CC)(CC)CC

Response given:
1. 1
2. 0.991
3. 1.01

====

Give normalized growth for every item shown.
- assay_text: chemical genetic growth profiling, strain panel (AID 1159580);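 further: tested at 20 µM; growth read once vehicle control cultures reached saturation at 30 °C; 1 = growth at the plate median or of vehicle wells; lower values mean less growth of the strain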
- reported_conditions: S. cerevisiae deletion strains, growth OD, locus YIR030C, strain dcg1, stronger effect = lower value
The campaign covered roughly 5,500 compounds. About 2,000 (36%) were called active. Roughly 18% stayed inconclusive and do not appear here. This is one part of the list.
Numbers only.

Please review the entries below; each comes with its answer.
>>> experimental_result("CC[C@H](C)C(=O)O[C@H]1C[C@@H](C)C=C2C=C[C@H](C)[C@H](CC[C@@H]3C[C@@H](O)CC(=O)O3)[C@H]21")
0.976
>>> experimental_result("CC[C@H](C)C(=O)O[C@H]1CCC=C2C=C[C@H](C)C(CCC3C[C@@H](O)CC(=O)O3)[C@H]21 (stereo partly drawn)")
0.981

Entry O=C(Cn1ccnc1[N+](=O)[O-])NCCO , normalized growth reported as 1.01

====

- assay_text: chemical genetic growth profiling, strain panel (AID 1159580);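 further: tested at 20 µM; growth read once vehicle control cultures reached saturation at 30 °C; 1 = growth at the plate median or of vehicle wells; lower values mean less growth of the strain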
- reported_conditions: S. cerevisiae deletion strains, growth OD, locus YPL051W, strain arl3, stronger effect = lower value
Out of some 5,500 compounds screened, about 2,000 (36%) were called active. About 18% were inconclusive and are not listed. The list shows a part of the results.
experimental_endpoint: normalized growth
Give bare numbers.

>>> experimental_result("CC(C)NCC(O)COc1cccc2ccccc12 (configuration not stated)")
1
>>> experimental_result("CC[N+](CC)(CC)CCOc1cccc(OCC[N+](CC)(CC)CC)c1OCC[N+](CC)(CC)CC")
1.01

// each listed compound needs a value for normalized growth
1. CC1=CC2C(CC1=O)C(C)=CCC2C(C)C (configuration not stated)
2. COc1ccc(CCN2CCC(Nc3nc4ccccc4n3Cc3ccc(F)cc3)CC2)cc1
3. O=S1OCC2C(CO1)C1(Cl)C(Cl)=C(Cl)C2(Cl)C1(Cl)Cl (configuration not stated)
4. N[C@@H](CC(=O)N1CCn2c(nnc2C(F)(F)F)C1)Cc1cc(F)c(F)cc1F

Response given:
1: 0.886; 2: 0.968; 3: 0.988; 4: 1.01

Return reported normalized growth values for all items listed beneath this line.
1. CCN(CC)C(=O)c1cccc(C)c1
2. CCOC(=O)Nc1nc2ccccc2[nH]1
3. O=C(O)CN1C(=O)c2cccc3cccc(c23)C1=O
4. Cn1c(=O)c2[nH]cnc2n(C)c1=O
5. CC(C)NCC(O)c1cc(O)cc(O)c1 (configuration not stated)
6. NC(CO)C(=O)NNCc1ccc(O)c(O)c1O (configuration not stated)

Response given:
1: 1.02; 2: 0.987; 3: 0.97; 4: 1.04; 5: 0.989; 6: 0.973
